# TARGET OR SYSTEM: CDK2/Cyclin A2 (Homo sapiens, UniProt P24941)
# TEST SUMMARY: Inhibition of CDK2/Cyclin A (unknown origin)
MEASUREMENT LABEL: IC50 (nM)

>>> print(df.to_string())
                               entry_smiles                          target_or_system  val
0  CN(C)C/C=C/C(=O)Nc1ccc(O[C@H]2CCC[C@@H](Nc3ncc(Cl)c(-c4c[nH]c5ccccc45)n3)C2)cc1  CDK2/Cyclin A2 (Homo sapiens, UniProt P24941)  650

(P) CN(C)C/C=C/C(=O)Nc1ccc(C(=O)N2CC[C@@H](Nc3ncc(Cl)c(-c4c[nH]c5ccccc45)n3)C2)cc1
(Q) CN(C)C/C=C/C(=O)Nc1ccc(C(=O)N2CCC[C@@H](Nc3ncc(C(F)(F)F)c(-c4c[nH]c5ccccc45)n3)C2)cc1
Between P and Q , which one shows the larger IC50 value? To answer, give the label that identifies your chosen option.
Q
(Q: 10000 nM, P: 49.3 nM)

* * *

# TARGET OR SYSTEM: CDK9/cyclin T1 (Homo sapiens, UniProt P50750)
# Sequence (O60563 whole entry): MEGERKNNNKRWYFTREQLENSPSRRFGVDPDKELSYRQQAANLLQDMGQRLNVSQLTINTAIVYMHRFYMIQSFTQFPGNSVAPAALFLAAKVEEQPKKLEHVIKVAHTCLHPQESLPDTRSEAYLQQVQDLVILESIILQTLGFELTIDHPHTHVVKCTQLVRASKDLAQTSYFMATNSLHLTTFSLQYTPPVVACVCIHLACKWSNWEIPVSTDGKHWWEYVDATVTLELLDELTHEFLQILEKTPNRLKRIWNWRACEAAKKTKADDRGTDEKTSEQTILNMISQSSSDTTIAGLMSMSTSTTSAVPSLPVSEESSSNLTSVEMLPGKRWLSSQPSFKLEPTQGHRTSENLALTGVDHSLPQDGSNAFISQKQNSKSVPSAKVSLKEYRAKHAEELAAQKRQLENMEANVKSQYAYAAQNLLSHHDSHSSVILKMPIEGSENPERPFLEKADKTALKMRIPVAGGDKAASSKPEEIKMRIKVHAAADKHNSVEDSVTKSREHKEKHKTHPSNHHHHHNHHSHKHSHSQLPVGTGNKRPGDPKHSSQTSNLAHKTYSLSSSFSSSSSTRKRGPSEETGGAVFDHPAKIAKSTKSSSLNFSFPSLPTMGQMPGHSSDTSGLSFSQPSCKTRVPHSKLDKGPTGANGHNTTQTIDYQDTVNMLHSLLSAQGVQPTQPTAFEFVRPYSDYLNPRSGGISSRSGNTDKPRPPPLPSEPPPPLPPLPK
# Sequence (P50750 whole entry): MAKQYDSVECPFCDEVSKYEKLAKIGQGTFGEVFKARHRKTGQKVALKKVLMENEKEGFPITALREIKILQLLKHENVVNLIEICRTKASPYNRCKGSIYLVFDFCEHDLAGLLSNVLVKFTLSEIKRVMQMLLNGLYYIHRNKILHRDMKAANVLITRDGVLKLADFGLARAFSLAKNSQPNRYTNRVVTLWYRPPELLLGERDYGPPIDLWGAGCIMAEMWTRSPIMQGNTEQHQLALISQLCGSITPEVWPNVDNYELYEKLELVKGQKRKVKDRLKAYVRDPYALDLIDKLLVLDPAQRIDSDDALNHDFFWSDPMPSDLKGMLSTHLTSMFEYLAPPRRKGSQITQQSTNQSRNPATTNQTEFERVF
# TEST SUMMARY: Inhibition of CDK9/Cyclin T1 (unknown origin)
# Format: protein-complex assay
pIC50: −log10 of the molar value.
MEASUREMENT LABEL: pIC50

Field: example entries. Status: answers known.
>>> print(df.to_string())
                               entry_smiles  measurement_label   val
0  CN(C)C/C=C/C(=O)Nc1ccc(C(=O)N2CCC[C@@H](Nc3ncc(Br)c(-c4c[nH]c5ccccc45)n3)C2)cc1              pIC50  6.74
1  CN(C)C/C=C/C(=O)Nc1ccc(O[C@H]2CCC[C@@H](Nc3ncc(Cl)c(-c4c[nH]c5ccccc45)n3)C2)cc1              pIC50  6.88
2  CN(C)C/C=C/C(=O)Nc1ccc(C(=O)N2CCC[C@@H](Nc3ncc(Cl)c(-c4c[nH]c5ccccc45)n3)C2)cc1              pIC50  6.71

(P) CN(C)C/C=C/C(=O)Nc1ccc(N2CCC[C@@H](Nc3ncc(Cl)c(-c4c[nH]c5ccccc45)n3)C2)cc1
(Q) CN(C)C/C=C/C(=O)Nc1ccc(C(=O)N2CCCC[C@@H](Nc3ncc(Cl)c(-c4c[nH]c5ccccc45)n3)C2)cc1
(R) CN(C)C/C=C/C(=O)Nc1ccc(C(=O)N2CC[C@@H](Nc3ncc(Cl)c(-c4c[nH]c5ccccc45)n3)C2)cc1
Rank the items in ascending order with respect to pIC50. Please reply with the labels ordered as requested. Many thanks.
Q, P, R

* * *

IC50 values for the compounds below.
# TEST SUMMARY: Antiproliferative activity against human Kelly cells harboring wild type CDK12 assessed as reduction in cell viability incubated for 72 hrs by CelTiter-Glo assay
# Type: functional, cell-based
Provide the reading as a plain figure in nM.

>>> df
                               entry_smiles  measurement_label  val
0  CN(C)C/C=C/C(=O)Nc1ccc(C(=O)N2CCC[C@@H](Nc3ncc(Cl)c(-c4c[nH]c5ccccc45)n3)C2)cc1               IC50   93

Query: IC50; subject: CN(C)C/C=C/C(=O)Nc1ccc(O[C@@H]2CCC[C@@H](Nc3ncc(Cl)c(-c4c[nH]c5ccccc45)n3)C2)cc1
42.2

* * *

# TARGET OR SYSTEM: CDK12/Cyclin K (Homo sapiens)
# Sequence (Q9NYV4 whole entry, one chain of several): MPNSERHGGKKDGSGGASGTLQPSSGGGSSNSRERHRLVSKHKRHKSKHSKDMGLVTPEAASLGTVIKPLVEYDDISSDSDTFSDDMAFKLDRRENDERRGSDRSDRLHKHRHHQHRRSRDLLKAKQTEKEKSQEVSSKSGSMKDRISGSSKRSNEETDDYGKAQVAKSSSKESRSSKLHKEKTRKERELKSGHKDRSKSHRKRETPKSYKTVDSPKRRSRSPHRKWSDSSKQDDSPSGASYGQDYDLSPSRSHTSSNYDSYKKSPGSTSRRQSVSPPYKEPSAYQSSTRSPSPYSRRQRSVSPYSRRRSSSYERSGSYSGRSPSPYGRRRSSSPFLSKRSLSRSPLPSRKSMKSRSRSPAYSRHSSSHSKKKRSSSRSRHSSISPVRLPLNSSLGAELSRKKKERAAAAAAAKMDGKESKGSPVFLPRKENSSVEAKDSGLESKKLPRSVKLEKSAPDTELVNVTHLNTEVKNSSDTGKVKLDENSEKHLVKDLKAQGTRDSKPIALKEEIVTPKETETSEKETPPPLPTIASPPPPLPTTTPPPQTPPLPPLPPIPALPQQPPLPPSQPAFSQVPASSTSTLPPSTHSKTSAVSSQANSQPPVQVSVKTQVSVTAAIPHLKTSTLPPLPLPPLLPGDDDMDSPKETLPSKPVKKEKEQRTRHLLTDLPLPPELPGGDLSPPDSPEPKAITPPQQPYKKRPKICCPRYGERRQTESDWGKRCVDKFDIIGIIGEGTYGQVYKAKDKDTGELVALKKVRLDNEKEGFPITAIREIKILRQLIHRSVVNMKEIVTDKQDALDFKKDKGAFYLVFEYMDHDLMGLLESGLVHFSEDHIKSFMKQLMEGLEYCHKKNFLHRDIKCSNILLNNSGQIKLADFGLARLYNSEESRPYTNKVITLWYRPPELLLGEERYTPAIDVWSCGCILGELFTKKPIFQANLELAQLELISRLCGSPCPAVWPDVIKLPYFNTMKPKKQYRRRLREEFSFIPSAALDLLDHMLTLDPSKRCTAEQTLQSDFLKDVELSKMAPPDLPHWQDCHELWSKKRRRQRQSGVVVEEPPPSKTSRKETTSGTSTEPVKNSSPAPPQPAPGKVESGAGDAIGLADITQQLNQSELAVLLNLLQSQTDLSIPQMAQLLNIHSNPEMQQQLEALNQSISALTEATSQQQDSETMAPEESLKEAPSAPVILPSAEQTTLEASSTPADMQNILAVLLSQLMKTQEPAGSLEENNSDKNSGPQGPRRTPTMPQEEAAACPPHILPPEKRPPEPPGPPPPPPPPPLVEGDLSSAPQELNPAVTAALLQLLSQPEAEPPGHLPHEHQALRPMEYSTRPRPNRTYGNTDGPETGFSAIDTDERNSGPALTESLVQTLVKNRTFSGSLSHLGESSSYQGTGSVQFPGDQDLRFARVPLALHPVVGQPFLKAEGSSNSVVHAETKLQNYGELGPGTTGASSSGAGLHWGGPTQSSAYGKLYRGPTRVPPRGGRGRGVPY
# TEST SUMMARY: Inhibition of human recombinant CDK12/CyclinK assessed as reduction in substrate phosphorylation using His-c-Myc as substrate preincubated with enzyme for 5 mins followed by substrate addition for 15 mins in presence of [gamma 32P-ATP] by radioactive kinase assay
MEASUREMENT LABEL: IC50 (nM)

>>> df
                               entry_smiles               target_or_system  val
0  CN(C)C/C=C/C(=O)Nc1ccc(C(=O)N2CCC[C@@H](Nc3ncc(Cl)c(-c4c[nH]c5ccccc45)n3)C2)cc1  CDK12/Cyclin K (Homo sapiens)  483
1  CN(C)C/C=C/C(=O)Nc1ccc(O[C@H]2CCC[C@@H](Nc3ncc(Cl)c(-c4c[nH]c5ccccc45)n3)C2)cc1  CDK12/Cyclin K (Homo sapiens)  181
2  CN(C)C/C=C/C(=O)Nc1ccc(O[C@@H]2CCC[C@@H](Nc3ncc(Cl)c(-c4c[nH]c5ccccc45)n3)C2)c(F)c1  CDK12/Cyclin K (Homo sapiens)  857

(I) CN(C)C/C=C/C(=O)Nc1ccc(C(=O)N2CCC[C@@H](Nc3ncc(Cl)c(-c4c[nH]c5ccccc45)n3)C2)nc1
(II) CN(C)C/C=C/C(=O)Nc1ccc(C(=O)N2CCCC[C@@H](Nc3ncc(Cl)c(-c4c[nH]c5ccccc45)n3)C2)cc1
(III) CN(C)C/C=C/C(=O)Nc1ccc(C(=O)N2CC[C@@H](Nc3ncc(Cl)c(-c4c[nH]c5ccccc45)n3)C2)cc1
Number of molecules to sort: 3. Sort criterion: IC50, ascending. Output spec: labels arranged per the requested ranking.
III, I, II
(III: 68.7 nM, I: 765 nM, II: 1450 nM)

* * *

# TARGET OR SYSTEM: Cyclin-dependent kinase 13/Cyclin-K (Homo sapiens)
# Sequence (Q14004 whole entry): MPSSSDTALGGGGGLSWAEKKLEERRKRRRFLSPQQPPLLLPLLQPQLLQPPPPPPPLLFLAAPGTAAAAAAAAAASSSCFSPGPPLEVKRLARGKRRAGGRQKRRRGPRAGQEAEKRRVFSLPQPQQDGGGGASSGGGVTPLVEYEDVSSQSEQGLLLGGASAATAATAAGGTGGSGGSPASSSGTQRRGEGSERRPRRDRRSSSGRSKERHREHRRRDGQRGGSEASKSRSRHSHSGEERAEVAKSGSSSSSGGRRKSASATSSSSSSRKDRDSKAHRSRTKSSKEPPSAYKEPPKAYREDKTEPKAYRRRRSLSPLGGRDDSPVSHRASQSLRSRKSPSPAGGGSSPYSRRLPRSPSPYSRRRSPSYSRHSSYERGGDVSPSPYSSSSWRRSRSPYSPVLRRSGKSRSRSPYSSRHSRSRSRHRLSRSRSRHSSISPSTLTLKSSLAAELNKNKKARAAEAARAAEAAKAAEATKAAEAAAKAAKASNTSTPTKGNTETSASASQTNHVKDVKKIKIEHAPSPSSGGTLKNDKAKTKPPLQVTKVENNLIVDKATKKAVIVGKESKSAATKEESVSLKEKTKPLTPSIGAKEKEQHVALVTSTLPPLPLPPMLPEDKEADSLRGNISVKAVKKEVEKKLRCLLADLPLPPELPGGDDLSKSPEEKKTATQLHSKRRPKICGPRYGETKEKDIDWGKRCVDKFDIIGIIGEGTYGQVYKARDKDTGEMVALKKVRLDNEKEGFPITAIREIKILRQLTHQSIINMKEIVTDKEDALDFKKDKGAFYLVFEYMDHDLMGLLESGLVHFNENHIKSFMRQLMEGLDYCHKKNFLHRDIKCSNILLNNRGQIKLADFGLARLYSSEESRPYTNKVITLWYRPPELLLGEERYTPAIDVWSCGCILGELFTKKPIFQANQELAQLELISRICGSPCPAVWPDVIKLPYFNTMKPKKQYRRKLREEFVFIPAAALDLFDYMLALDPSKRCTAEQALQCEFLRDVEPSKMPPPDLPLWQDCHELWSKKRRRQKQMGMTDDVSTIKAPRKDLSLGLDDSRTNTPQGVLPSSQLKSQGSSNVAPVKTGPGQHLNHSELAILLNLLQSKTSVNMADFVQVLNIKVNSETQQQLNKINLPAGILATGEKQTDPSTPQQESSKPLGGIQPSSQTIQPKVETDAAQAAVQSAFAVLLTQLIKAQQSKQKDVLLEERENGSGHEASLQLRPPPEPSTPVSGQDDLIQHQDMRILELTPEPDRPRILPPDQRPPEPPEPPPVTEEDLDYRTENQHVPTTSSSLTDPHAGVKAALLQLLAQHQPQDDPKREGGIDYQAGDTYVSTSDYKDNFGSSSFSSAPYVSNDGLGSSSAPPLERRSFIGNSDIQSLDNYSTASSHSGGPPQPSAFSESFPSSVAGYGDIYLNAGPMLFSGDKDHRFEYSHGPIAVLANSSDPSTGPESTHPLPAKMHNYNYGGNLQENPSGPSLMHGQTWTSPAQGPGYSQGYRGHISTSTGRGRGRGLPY
# Sequence (O75909 whole entry, further chain): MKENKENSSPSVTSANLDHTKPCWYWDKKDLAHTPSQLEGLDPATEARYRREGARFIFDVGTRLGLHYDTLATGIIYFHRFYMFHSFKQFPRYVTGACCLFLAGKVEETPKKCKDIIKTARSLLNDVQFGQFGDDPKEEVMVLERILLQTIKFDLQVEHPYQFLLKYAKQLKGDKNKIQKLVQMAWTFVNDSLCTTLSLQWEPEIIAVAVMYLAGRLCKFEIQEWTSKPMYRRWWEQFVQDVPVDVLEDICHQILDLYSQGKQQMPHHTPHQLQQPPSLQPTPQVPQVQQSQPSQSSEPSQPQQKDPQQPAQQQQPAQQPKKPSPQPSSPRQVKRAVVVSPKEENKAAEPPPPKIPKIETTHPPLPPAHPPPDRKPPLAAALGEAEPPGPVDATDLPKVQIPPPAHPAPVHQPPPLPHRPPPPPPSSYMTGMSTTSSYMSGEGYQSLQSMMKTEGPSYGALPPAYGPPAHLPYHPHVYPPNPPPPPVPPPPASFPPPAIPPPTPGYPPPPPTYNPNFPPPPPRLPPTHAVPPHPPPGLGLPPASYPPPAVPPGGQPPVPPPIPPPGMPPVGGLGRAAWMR
# TEST SUMMARY: Inhibition of human recombinant CDK13/CyclinK assessed as reduction in substrate phosphorylation using His-c-Myc as substrate preincubated with enzyme for 5 mins followed by substrate addition for 15 mins in presence of [gamma 32P-ATP] by radioactive kinase assay
MEASUREMENT LABEL: IC50 (µM)

Sample answers from the record:
>>> print(df.to_string())
                               entry_smiles     val
0  CN(C)C/C=C/C(=O)Nc1ccc(C(=O)N2CCC[C@@H](Nc3ncc(Cl)c(-c4c[nH]c5ccccc45)n3)C2)cc1   0.657
1  CN(C)C/C=C/C(=O)Nc1ccc(C(=O)N2CC[C@@H](Nc3ncc(Cl)c(-c4c[nH]c5ccccc45)n3)C2)cc1  0.0502
2  CN(C)C/C=C/C(=O)Nc1ccc(C(=O)N2CCCC[C@@H](Nc3ncc(Cl)c(-c4c[nH]c5ccccc45)n3)C2)cc1    1.83

(a) CN(C)C/C=C/C(=O)Nc1ccc(O[C@@H]2CCC[C@@H](Nc3ncc(Cl)c(-c4c[nH]c5ccccc45)n3)C2)cc1
(b) CN(C)C/C=C/C(=O)Nc1ccc(C(=O)N2CCC[C@@H](Nc3ncc(C(F)(F)F)c(-c4c[nH]c5ccccc45)n3)C2)cc1
Which is greater in IC50, the first item a or the second item b ? I would appreciate it if you answered with the label of your choice.
b
(b: 10 µM, a: 0.283 µM)
